Condition Details: 303.15 K; 101 kPa; Liquid; Capillary tube (Ostwald / Ubbelohde) method
Property: viscosity (mPa·s)
Give bare numbers, in mPa·s.

Compound	Units Label	viscosity
COC(C)=O [methyl ethanoate]	mPa·s	0.351
CCOC(C)=O [ethyl acetate]	mPa·s	0.401

# batch: return viscosity for each of the 2 compounds below
1. CCCCOC(C)=O [butyl ethanoate]
2. CC1OC(C)OC(C)O1 (centres undefined)

result:
[0.636, 1.001]

---

Condition Details: 308.15 K; 101 kPa; Liquid; Capillary tube (Ostwald / Ubbelohde) method
Numbers after ± are expanded uncertainties.
So I've got a bunch of compounds here, and I need their viscosity values.
Reply with the number and its unit after it.

Known viscosity results, listed for orientation:
Compound	viscosity
CCOC(C)=O [ethyl acetate]	0.387 ± 0.008 mPa·s
CCCCOC(C)=O [butyl ethanoate]	0.579 ± 0.009 mPa·s
COC(C)=O [methyl ethanoate]	0.338 ± 0.007 mPa·s

Consider the record given below.
query: Looking for the measured viscosity of CC1OC(C)OC(C)O1 (centres undefined) , can you help?
result: 0.907 ± 0.013 mPa·s

---

Condition Details: 298.15 K; 101 kPa; Liquid; Pycnometric method
Property: mass density (kg/m3)
One number for each entry, in kg/m3.

Molecule	Units Label	Result
CC1OC(C)OC(C)O1 (centres undefined) [2,4,6-trimethyl-1,3,5-trioxane]	kg/m3	988.4
COC(C)=O [methyl ethanoate]	kg/m3	926.7
CCCCOC(C)=O [butyl ethanoate]	kg/m3	876.4

query: Looking for the measured mass density of CCOC(C)=O [ethyl acetate] , can you help?
result: 893.8

---

Condition Details: 298.15 K; 101 kPa; Liquid; Capillary tube (Ostwald / Ubbelohde) method
Property: viscosity (mPa·s)
Numbers only, in mPa·s.

Molecule	Units Label	Result
COC(C)=O [methyl ethanoate]	mPa·s	0.367

# batch: return viscosity for each of the 2 molecules below
1. CCOC(C)=O [ethyl acetate]
2. CCCCOC(C)=O [butyl ethanoate]

result:
1: 0.43; 2: 0.685

query: Looking for the measured viscosity of CC1OC(C)OC(C)O1 (centres undefined) [2,4,6-trimethyl-1,3,5-trioxane] , can you help?
result: 1.107
